Reference for the values: patent US9776990B2

Target: BRD4 (BDI_K57-E168) (Homo sapiens (Human))
Assay: TR-FRET bromodomain binding assay, BRD4 first bromodomain
Conditions: His-tagged BD1, 100 nM Alexa647 probe
endpoint label: Ki (µM)

Some compounds with recorded Ki:
>  <compound>
Cc1[nH]c(-c2ccccc2OCc2ccccc2)c2c1C(=O)CC(C)(C)C2

>  <Ki / µM>
1.5

$$$$
>  <compound>
Cc1[nH]c(-c2ccccc2OCc2ccc3[nH]ncc3c2)c2c1C(=O)CCC2

>  <Ki / µM>
4.88

$$$$
>  <compound>
Cc1[nH]c(-c2cccc3[nH]ccc23)c2c1C(=O)CCC2

>  <Ki / µM>
1.79

$$$$

[a] Cc1[nH]c(-c2ccccc2N2CCOCC2)c2c1C(=O)CC(C)(C)C2
[b] Cc1[nH]c(-c2ccccc2COc2ccccc2)c2c1C(=O)CCC2
(Q) Compare the recorded Ki of a and b ; state which is larger. Reply with the label of the item you choose.
(A) a

[P] CCNC(=O)c1ccc(Oc2ccccc2)c(-c2[nH]c(C)c3c2CCCC3=O)c1
[Q] Cc1[nH]c(-c2ccc3c(c2)OCO3)c2c1C(=O)CCC2
[R] Cc1[nH]c(-c2cccc(OCc3ccccc3)c2)c2c1C(=O)CCC2
(Q) Hi! Can you put these in order of Ki, lowest number first? Reply with the labels, ordered as the question asks.
(A) P, Q, R
(P: 0.077 µM, Q: 3.77 µM, R: 9.06 µM)

[a] CC(=O)Nc1ccc(Oc2ccc(F)cc2F)c(-c2[nH]c(C)c3c2CCCC3=O)c1
[b] Cc1[nH]c(-c2cc(C(=O)O)ccc2Oc2ccccc2)c2c1C(=O)CCC2
[c] COc1ccc(-c2[nH]c(C)c3c2CCCC3=O)cc1
[d] Cc1[nH]c(-c2ccccc2Oc2ccccc2)c2c1C(=O)CCC2
[e] Cc1[nH]c(-c2ccccc2-c2ccco2)c2c1C(=O)CCC2
(Q) Parameters: sort_field (Ki), sort_dir (desc). Reply with the labels, ordered as the question asks.
(A) e, c, d, a, b

[I] COc1cc(-c2[nH]c(C)c3c2CCCC3=O)cc(OC)c1OC
[II] Cc1[nH]c(-c2cccc3[nH]cnc23)c2c1C(=O)CCC2
(Q) Compare the recorded Ki of I and II ; state which is larger. Reply with the label of the item you choose.
(A) II
